test system: PXR homodimer (NR concentration 270 nM); assay: PBM binding z-score (relative to random genomic background probes); higher = stronger binding; sequences stand for … in GC…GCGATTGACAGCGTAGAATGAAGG
Classification field: enter true for PBM binding z-score values not below 1, false for values below it.

Solved entries (count: 5):
                       sequence_input  label_value
0  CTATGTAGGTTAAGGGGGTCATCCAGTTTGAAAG         true
1  TCGAGTAGGTTACGGAGGCATTCAGGGATGAAGA        false
2  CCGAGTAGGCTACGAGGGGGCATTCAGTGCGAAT         true
3  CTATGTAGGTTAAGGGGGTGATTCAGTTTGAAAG         true
4  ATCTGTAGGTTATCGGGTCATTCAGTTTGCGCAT         true

// inclusive: PBM binding z-score at least 1? input: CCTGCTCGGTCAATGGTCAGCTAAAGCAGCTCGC
false

Same thing, different sequence: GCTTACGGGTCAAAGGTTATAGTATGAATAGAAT
false

And the next one, TCGAATAGGTTACGGGGGCATTCAGGGATGAAGA ?
true
